Sourced from patent US11559497B2

Experiment: Phase 1 clinical study: plasma pharmacokinetics after ketamine transdermal patch
Conditions: human, plasma, other: transdermal patch, 20 mg, Cmax, Stage 1; Mean
property measured: Cmax

CNC1(c2ccccc2Cl)CCCCC1=O (racemic) ... ~10.3 ng/mL

Alright, here's another compound for you.
Complete the entry with Cmax for NC1(c2ccccc2Cl)CCCCC1=O (centres unmarked)
11.1 ng/mL

====

Test: Phase 1 clinical study: plasma pharmacokinetics after ketamine transdermal patch
Details: human, plasma, other: transdermal patch, 20 mg, AUCinf, Stage 1; Mean
property measured: AUC(0-inf)
Returns: string containing the number followed by the unit.

CNC1(c2ccccc2Cl)CCCCC1=O (racemic) ... 299 ng·h/mL

Complete the entry with AUC(0-inf) for NC1(c2ccccc2Cl)CCCCC1=O (centres unmarked)
420 ng·h/mL

====

Experiment: Phase 1 clinical study: plasma pharmacokinetics after ketamine transdermal patch
Details: human, plasma, other: transdermal patch, 40 mg, Tmax, Stage 3; Median
property measured: Tmax (h)
Answers are plain numbers, in h.

NC1(c2ccccc2Cl)CCCCC1=O (centres unmarked) [Norketamine, norketamine] ... 28

Alright, here's another compound for you.
Complete the entry with Tmax for CNC1(c2ccccc2Cl)CCCCC1=O (racemic) [Ketamine, ketamine]
28

====

Assay: Phase 1 clinical study: plasma pharmacokinetics after ketamine transdermal patch
Details: human, plasma, other: transdermal patch, 20 mg, Cmax, Stage 1; Median
property measured: Cmax (ng/mL)
One number for each entry, in ng/mL.

NC1(c2ccccc2Cl)CCCCC1=O (centres unmarked) ... 9.85

Alright, here's another compound for you.
Complete the entry with Cmax for CNC1(c2ccccc2Cl)CCCCC1=O (racemic)
9.92

====

Assay: Phase 1 clinical study: plasma pharmacokinetics after ketamine transdermal patch
Conditions: human, plasma, other: transdermal patch, 20 mg, Tmax, Stage 1; Median
property measured: Tmax (h)
Answers are plain numbers, in h.

NC1(c2ccccc2Cl)CCCCC1=O (centres unmarked) [Norketamine, norketamine] ... 28

Alright, here's another compound for you.
Complete the entry with Tmax for CNC1(c2ccccc2Cl)CCCCC1=O (racemic) [Ketamine, ketamine]
28

====

Experiment: Phase 1 clinical study: plasma pharmacokinetics after ketamine transdermal patch
Settings: human, plasma, other: transdermal patch, 40 mg, T1/2, Stage 3; Median
property measured: half-life

# map each molecule to its half-life
1. NC1(c2ccccc2Cl)CCCCC1=O (centres unmarked)
2. CNC1(c2ccccc2Cl)CCCCC1=O (racemic)

1. 19.2 h
2. 14.9 h

====

Assay: Phase 1 clinical study: plasma pharmacokinetics after ketamine transdermal patch
Conditions: human, plasma, other: transdermal patch, 20 mg, Tmax, Stage 1; Mean
property measured: Tmax

# map each compound to its Tmax
1. CNC1(c2ccccc2Cl)CCCCC1=O (racemic)
2. NC1(c2ccccc2Cl)CCCCC1=O (centres unmarked)

["27.1 h", "28.4 h"]

====

Experiment: Phase 1 clinical study: plasma pharmacokinetics after ketamine transdermal patch
Details: human, plasma, other: transdermal patch, 40 mg, average AUC of ketamine per cm^2 patch over 24 hours, Stage 3
property measured: AUC (ng·h/mL)
Answers are plain numbers, in ng·h/mL.

Complete the entry with AUC for CNC1(c2ccccc2Cl)CCCCC1=O (racemic)
4.17
